assay: in vivo; details: mouse, in vivo, im

| structure_string | LD50 at 336 h [mg/kg] |
| --- | --- |
| CN(C)CCOC(=O)Cn1c2ccccc2c(=O)c2ccccc21 | 600 |

* * *

assay: in vivo; conditions: mouse, in vivo, iv
metric_name: LD50 at 336 h (mg/kg)

| structure_string | reported_measurement |
| --- | --- |
| CN(C)CCOC(=O)Cn1c2ccccc2c(=O)c2ccccc21 | 400 |
